B1: NECAB1 (parent)
chain: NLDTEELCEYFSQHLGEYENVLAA

variants of: B1; assay: protein stability index of a GFP-peptide fusion (GPS, HEK-293T) (PSI 1-6); higher = more stable; conditions: c terminus: a fixed tail appended;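 note: lentivirally expressed fusions sorted by FACS into six bins by GFP to DsRed ratio, PSI derived from sequencing read proportions per bin multiplied by bin number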
Catalogue of variants with associated protein stability index
Give only the figure.

ALTERATION	REPORTED_VALUE
L22K	4.61
L7Y	3.94
A24C	2.25
E19G	2.34
S12V	2.28
E9S	2.04

Indicate its recorded protein stability index; the variant in question is Y18P
4.28

// fetch protein stability index given entry A23G
2.93

Return value of protein stability index for input C8Y , no commentary.
3.46

Give protein stability index for E17I
2.84

Fill in protein stability index for record V21C
3.01
